biological target: CaSR de rat (Rattus norvegicus); construct: expressed in transfected cells; host or cells: CHO (Chinese hamster ovary) cells, line CHO(CaSR); experiment: Accumulation of tritiated inositol phosphates ([3H]IP) in transfected CHO(CaSR) cells; type: cell-based; conditions: compound 10 µM, in presence of 2 mM Ca^2+, mean ± standard error of 2 to 5 independent experiments, read-out: Accumulation d'(^3H)-IP % de la réponse 10mM Ca^2+ ± E.S.
Sequence (P48442 20-1079): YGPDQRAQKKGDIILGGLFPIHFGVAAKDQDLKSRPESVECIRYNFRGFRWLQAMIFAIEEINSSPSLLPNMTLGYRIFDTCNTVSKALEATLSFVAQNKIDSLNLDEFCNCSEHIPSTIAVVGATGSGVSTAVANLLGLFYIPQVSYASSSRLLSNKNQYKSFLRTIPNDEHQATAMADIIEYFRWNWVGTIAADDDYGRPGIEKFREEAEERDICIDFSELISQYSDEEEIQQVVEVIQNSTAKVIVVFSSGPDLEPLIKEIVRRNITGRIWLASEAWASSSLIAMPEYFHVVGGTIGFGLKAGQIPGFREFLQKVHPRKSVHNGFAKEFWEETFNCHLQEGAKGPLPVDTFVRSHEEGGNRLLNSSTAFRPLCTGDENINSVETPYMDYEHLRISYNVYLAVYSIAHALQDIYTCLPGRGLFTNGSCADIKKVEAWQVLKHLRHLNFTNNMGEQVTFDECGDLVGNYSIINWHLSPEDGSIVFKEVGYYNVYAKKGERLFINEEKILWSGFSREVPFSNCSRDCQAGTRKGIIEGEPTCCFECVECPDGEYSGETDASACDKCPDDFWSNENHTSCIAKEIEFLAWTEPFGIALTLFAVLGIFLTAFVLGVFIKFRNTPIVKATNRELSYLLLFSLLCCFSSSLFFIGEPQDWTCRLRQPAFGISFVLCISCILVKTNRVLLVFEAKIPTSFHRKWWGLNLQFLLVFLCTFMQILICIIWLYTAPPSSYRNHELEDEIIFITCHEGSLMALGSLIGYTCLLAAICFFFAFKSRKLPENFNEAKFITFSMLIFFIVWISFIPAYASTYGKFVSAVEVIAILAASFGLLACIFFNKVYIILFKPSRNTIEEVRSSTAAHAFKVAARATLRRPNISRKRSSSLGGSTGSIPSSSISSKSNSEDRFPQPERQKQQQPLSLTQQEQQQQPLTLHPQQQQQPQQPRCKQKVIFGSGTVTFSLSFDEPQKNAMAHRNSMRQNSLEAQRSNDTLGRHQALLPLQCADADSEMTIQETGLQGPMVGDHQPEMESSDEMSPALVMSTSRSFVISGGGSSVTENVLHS
READOUT KIND: activation at 10 µM (%)

- CC(NCC(Cc1ccccc1)NS(=O)(=O)c1ccccc1C(F)(F)F)c1cccc2ccccc12 (stereo not shown): 48
- CC(NCC(Cc1ccccc1)NS(=O)(=O)c1ccc2ccccc2c1)c1cccc2ccccc12 (stereo not shown): 34
- CC(NCC(Cc1ccccc1)NCc1cccc(Cl)c1)c1cccc2ccccc12 (stereo not shown): 78
- COc1ccc(CC(CNC(C)c2cccc3ccccc23)NS(=O)(=O)c2ccc(OC)cc2)cc1 (stereo not shown): 45
- CC(NCC(Cc1ccccc1)NCc1ccccc1F)c1cccc2ccccc12 (stereo not shown): 90
- CC(NCC(Cc1ccccc1)NS(=O)(=O)c1ccccc1Cl)c1cccc2ccccc12 (stereo not shown): 79

a = COc1ccc(S(=O)(=O)NCCNC(C)c2cccc3ccccc23)cc1 (stereo not shown)
b = Cc1ccc(S(=O)(=O)NC(CNC(C)c2ccccc2)Cc2ccccc2)cc1 (stereo not shown)
**Q:** Look at a and b . Which one has the lower recorded activation at 10 µM number? // respond with label for picked entry
**A:** b
(b: 23%, a: 45%)

A = Cc1ccc(S(=O)(=O)NC(CNC(C)c2cccc3ccccc23)c2ccccc2)cc1 (stereo not shown)
B = COc1ccc(S(=O)(=O)NC(CNC(C)c2cccc3ccccc23)Cc2ccccc2OC)cc1 (stereo not shown)
C = COc1cccc([C@@H](C)NC(CNS(=O)(=O)c2ccc(C)cc2)c2ccccc2)c1 (stereo partly shown)
D = CC(NCC(N)Cc1ccccc1)c1ccccc1 (stereo not shown)
E = CC(NCC(Cc1ccccc1)NCc1ccccc1Cl)c1cccc2ccccc12 (stereo not shown)
**Q:** Sequence the entries by activation at 10 µM, beginning with the highest number. The labels, placed in the requested order, form the answer.
**A:** E, B, A, C, D
(E: 98%, B: 65%, A: 31%, C: 6%, D: 3%)

I = COc1cccc([C@@H](C)NCC(Cc2ccccc2)NS(=O)(=O)c2ccc(C)cc2)c1 (stereo partly shown)
II = CC(NCC(Cc1ccccc1)NS(=O)(=O)c1cccc(Cl)c1)c1cccc2ccccc12 (stereo not shown)
**Q:** Lab note: check whether I or II shows the higher recorded activation at 10 µM. Write the label of whichever entry you select.
**A:** II
(II: 83%, I: 36%)

I = CC(NCC(Cc1ccccc1)NS(=O)(=O)c1ccc(C(F)(F)F)cc1)c1cccc2ccccc12 (stereo not shown)
II = COc1ccc(S(=O)(=O)NC(CNC(C)c2cccc3ccccc23)Cc2ccccc2)cc1 (stereo not shown)
III = C[C@@H](NCC(Cc1ccccc1)NS(=O)(=O)c1ccc([N+](=O)[O-])cc1)c1ccccc1 (single isomer, unassigned)
IV = COc1ccc(S(=O)(=O)NC(CNC(C)c2cccc3ccccc23)Cc2ccc3c(c2)OCO3)cc1 (stereo not shown)
**Q:** List these items ordered by activation at 10 µM, big to small. State the ranking by listing the labels in the requested order.
**A:** II, IV, I, III
(II: 80%, IV: 47%, I: 29%, III: 12%)

A = COc1ccc(S(=O)(=O)NC(C)CNC(C)c2cccc3ccccc23)cc1 (stereo not shown)
B = CC(NCC(Cc1ccccc1)NCc1ccccc1)c1cccc2ccccc12 (stereo not shown)
**Q:** Consider A and B . Which of these has its activation at 10 µM at a higher number? # reply format: chosen label
**A:** B

1 = COc1ccc(S(=O)(=O)NC(CCc2ccccc2)CNC(C)c2cccc3ccccc23)cc1 (stereo not shown)
2 = CC(NCC(Cc1ccccc1)NS(=O)(=O)c1ccc([N+](=O)[O-])cc1)c1cccc2ccccc12 (stereo not shown)
**Q:** Lab log: flag the item ( 1 or 2 ) with the smaller activation at 10 µM figure. Indicate which entry you chose by stating its label.
**A:** 2
(2: 27%, 1: 39%)

a = Cc1ccc(S(=O)(=O)NC(CNC(C)c2cccc3ccccc23)Cc2ccccc2)cc1 (stereo not shown)
b = CC(NCC(Cc1ccccc1)NS(=O)(=O)c1ccc(Cl)cc1)c1cccc2ccccc12 (stereo not shown)
**Q:** Of the two listed items, which has the higher activation at 10 µM? First: a Second: b Please identify the chosen entry by its label.
**A:** a
(a: 68%, b: 38%)

P = CC(NCC(Cc1ccccc1)NS(C)(=O)=O)c1cccc2ccccc12 (stereo not shown)
Q = COc1ccc(S(=O)(=O)NC(CN[C@H](C)c2cccc(OC)c2)Cc2ccccc2)cc1 (stereo partly shown)
**Q:** Please indicate which entry, P or Q , has the lower recorded activation at 10 µM value. API: response body contains the label of the selected item.
**A:** Q
(Q: 34%, P: 57%)
